target: UniProt:P08684; experiment: clinical; conditions: in vivo, po, 2 mg
endpoint_label: AUC(0-inf)
Lab note: write values as number then unit, every time.

Query: AUC(0-inf); subject: Cc1ncc2n1-c1ccc(Cl)cc1C(c1ccccc1F)=NC2 [Midazolam, midazolam]
21.2 ng·h/mL

----------
biological target: CYP3A (Homo sapiens); assay: clinical; conditions: in vivo, po, 2 mg
Sequence (P08684 2-503): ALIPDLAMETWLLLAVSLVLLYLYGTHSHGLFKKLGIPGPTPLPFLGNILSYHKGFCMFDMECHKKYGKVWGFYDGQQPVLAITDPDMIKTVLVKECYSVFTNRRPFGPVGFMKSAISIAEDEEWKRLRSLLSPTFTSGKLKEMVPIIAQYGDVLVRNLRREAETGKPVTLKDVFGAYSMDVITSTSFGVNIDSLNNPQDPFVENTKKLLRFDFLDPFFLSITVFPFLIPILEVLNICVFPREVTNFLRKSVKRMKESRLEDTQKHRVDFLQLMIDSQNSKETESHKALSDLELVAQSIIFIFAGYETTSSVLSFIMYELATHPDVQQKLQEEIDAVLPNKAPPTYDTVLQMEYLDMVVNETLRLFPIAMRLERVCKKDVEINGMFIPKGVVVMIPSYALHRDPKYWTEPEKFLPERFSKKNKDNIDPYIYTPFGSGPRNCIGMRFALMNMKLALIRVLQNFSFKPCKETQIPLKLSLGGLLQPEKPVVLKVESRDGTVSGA
endpoint_label: half-life

Query: half-life; subject: `Cc1ncc2n1-c1ccc(Cl)cc1C(c1ccccc1F)=NC2`
3.87 h
